The reported numbers originate from ChEMBL document CHEMBL1139533.

In this section we review reported IC50 values for a set of compounds.
- System: L1210
- MEASUREMENT NOTES: Cytostatic activity against L1210 cell line
- Type: functional, cell-based
- CONDITION SUMMARY: Mus musculus

| SMILES REPRESENTATION | IC50 |
| --- | --- |
| CN[C@H](CC(C)C)C(=O)N[C@H]1C(=O)N[C@@H](CC(N)=O)C(=O)N[C@H]2C(=O)N[C@H]3C(=O)N[C@H](C(=O)N[C@H](C(=O)NCCCCCCCCCCN)c4cc(O)cc(O)c4-c4cc3ccc4O)[C@H](O)c3ccc(c(Cl)c3)Oc3cc2cc(c3O)Oc2ccc(cc2Cl)[C@H]1O | > 250 µM |
| NC(=O)C[C@@H]1NC(=O)[C@H](N)[C@H](O)c2ccc(c(Cl)c2)Oc2cc3cc(c2O)Oc2ccc(cc2Cl)[C@@H](O)[C@@H]2NC(=O)[C@H](NC(=O)[C@@H]3NC1=O)c1ccc(O)c(c1)-c1c(O)cc(O)cc1[C@@H](C(=O)O)NC2=O | > 250 µM |
| CN[C@H](CC(C)C)C(=O)N[C@H]1C(=O)N[C@@H](CC(N)=O)C(=O)N[C@H]2C(=O)N[C@H]3C(=O)N[C@H](C(=O)N[C@H](C(=O)NCCCCCCCCCCN)c4cc(O)cc(O)c4-c4cc3ccc4O)[C@H](O)c3ccc(cc3)Oc3cc2cc(c3O)Oc2ccc(cc2Cl)[C@H]1O | ≥ 250 µM |
| NCCCCCCCCCCNC(=O)[C@H]1NC(=O)[C@H]2NC(=O)[C@H](NC(=O)[C@@H]3NC(=O)[C@H](CC(N)=O)NC(=O)[C@H](N)[C@H](O)c4ccc(c(Cl)c4)Oc4cc3cc(c4O)Oc3ccc(cc3)[C@H]2O)c2ccc(O)c(c2)-c2c(O)cc(O)cc21 | ≥ 250 µM |
